system.under.test: D(2) dopamine receptor (Homo sapiens, UniProt P14416)
Sequence (P14416 whole entry): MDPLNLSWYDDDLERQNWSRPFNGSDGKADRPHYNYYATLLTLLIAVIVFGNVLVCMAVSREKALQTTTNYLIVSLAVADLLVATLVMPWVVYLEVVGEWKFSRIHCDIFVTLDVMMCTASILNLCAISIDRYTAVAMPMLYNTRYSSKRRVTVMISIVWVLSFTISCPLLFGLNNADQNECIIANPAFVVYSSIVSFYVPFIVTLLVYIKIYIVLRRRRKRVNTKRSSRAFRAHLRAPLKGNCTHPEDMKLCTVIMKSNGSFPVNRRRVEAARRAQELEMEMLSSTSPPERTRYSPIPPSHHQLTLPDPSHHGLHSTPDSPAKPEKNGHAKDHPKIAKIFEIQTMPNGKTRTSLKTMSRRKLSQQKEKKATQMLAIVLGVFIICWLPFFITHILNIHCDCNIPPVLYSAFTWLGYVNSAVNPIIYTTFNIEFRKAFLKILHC
procedure.text: Antagonist activity at D2 receptor (unknown origin) expressed in CHOK1 cells assessed as inhibition of dopamine-induced calcium flux preincubated for 60 mins at 37 degC followed by 15 mins incubation under room temperature and subsequent dopamine addition measured after 20 secs for 100 secs by calcium-4 dye based FLIPR assay
pIC50: −log10 of the molar value.
assay.metric: pIC50

Solved entries (count: 6):
## Input GET /values?readout=pIC50&item= COc1cc(/C=C/C(=O)Oc2c(OC)ccc3c2CN2CCc4cc5c(cc4C2C3)OCO5)ccc1OC(C)=O (racemic)
## Output 5.10

## Input Query: pIC50; subject: COc1cc2c(cc1OC)C1Cc3ccc(OC)c(O)c3CN1CC2 (racemic)
## Output 5.51

## Input Bench note: what pIC50 did COc1cc2c(cc1OC)[C@@H]1Cc3ccc(OC)c(OC)c3CN1CC2 [TETRAHYDROPALMATINE] show?
## Output 6.35

## Input Reported pIC50, compound COc1cc2c(cc1OC)C1Cc3c(cc(O)c(OC)c3OC)CN1CC2 (racemic) : ____
## Output 5.06

## Input Looking for the measured pIC50 of COc1ccc2c(c1OC)CN1CCc3cc(O)c(O)cc3C1C2 (racemic) , can you help?
## Output 7.40

## Input Fill in: pIC50 of COc1cc2c(cc1O)C1Cc3cc(OC)c(OC)cc3CN1CC2 (racemic) is ___
## Output 5.45

[a] COc1cc2c(c(OC)c1O)CC1c3cc4c(cc3CCN1C2)OCO4 (racemic)
[b] COc1cc2c(cc1OC)C1Cc3c(cc(OC)c(O)c3OC)CN1CC2 (racemic)
## Input Field: lower recorded pIC50 (choose a or b ) Selection: enter the item's label.
## Output b
(b: 5.20, a: 5.97)

* * *

system.under.test: UniProt:P21728
Sequence (P21728 whole entry): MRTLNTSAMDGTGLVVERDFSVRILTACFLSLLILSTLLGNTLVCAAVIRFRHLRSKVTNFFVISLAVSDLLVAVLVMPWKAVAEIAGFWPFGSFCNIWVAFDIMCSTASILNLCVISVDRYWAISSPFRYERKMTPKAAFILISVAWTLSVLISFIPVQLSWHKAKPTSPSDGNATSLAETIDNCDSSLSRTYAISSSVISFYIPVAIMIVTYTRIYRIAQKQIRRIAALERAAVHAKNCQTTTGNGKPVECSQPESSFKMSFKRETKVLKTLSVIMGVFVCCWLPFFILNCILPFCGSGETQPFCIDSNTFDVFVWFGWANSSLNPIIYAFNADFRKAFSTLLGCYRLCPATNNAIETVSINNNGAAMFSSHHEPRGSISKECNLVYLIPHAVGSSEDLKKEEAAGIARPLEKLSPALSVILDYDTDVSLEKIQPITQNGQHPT
procedure.text: Antagonist activity at D1 receptor (unknown origin) expressed in CHOK1 cells assessed as inhibition of SKF38393-induced cAMP accumulation measured after 30 mins
assay.metric: IC50 (µM)

Previously resolved entries follow.
## Input Requested read-out: IC50. Entry: Oc1cccc2c1CC1c3cc4c(cc3CCN1C2)OCO4 (racemic)
## Output 1.03

## Input Record request: IC50 value, item COc1ccc2c(c1O)CN1CCc3cc(O)c(O)cc3C1C2 (racemic)
## Output 0.39

## Input Using the record for Oc1ccc2c(c1)CN1CCc3cc4c(cc3C1C2)OCO4 (racemic) , report its IC50.
## Output 1.42

## Input Requested field: IC50. Item: COc1cc2c(cc1OC)C1Cc3ccc(OC)c(O)c3CN1CC2 (racemic)
## Output 0.41

## Input Would you kindly share the measured IC50 for COc1cc2c(cc1OC)[C@@H]1Cc3ccc(OC)c(OC)c3CN1CC2 [TETRAHYDROPALMATINE] ?
## Output 1.63

[P] COc1cc2c(cc1O)CC1c3cc(OC)c(OC)cc3CCN1C2 (racemic)
[Q] COc1ccc2c(c1OC(C)=O)CN1CCc3cc4c(cc3C1C2)OCO4 (racemic)
## Input Returns: the label, P or Q , whose recorded IC50 is the lower number. Bench note: the answer is the label of the chosen record.
## Output P
(P: 0.67 µM, Q: 1.08 µM)
